The measurements presented in this section are drawn from a melting point compilation (Tetko et al.; mined from patent text by program, amines drawn as free bases though some values may be those of a salt).

test.readout: melting point

O=[N+]([O-])c1ccc2c(c1)NP(=O)(N(CCCl)CCCl)OC2 (stereo unspecified) ... 138 to 142 °C
COc1cc(COc2nn(-c3ccccc3)cc2C(N)=O)ccc1OCc1nc(-c2ccccc2)oc1C ... 190 to 191 °C

Give me melting point for each of these compounds, listed below.
1. CC(=O)Nc1ccc(S(=O)(=O)Nc2cccc3[nH]ccc23)cc1
2. c1ccc(COc2ccc3ccc(OCc4ccccc4)cc3c2)cc1
3. CC(C)c1nc(-c2ccc(F)cc2)c(C=O)c(C(C)C)c1CO
4. N#CN=C(Nc1cccnc1)NC(NC(=O)c1cccc(Cl)c1)C(F)(F)C(F)(F)F (stereo unspecified)
5. O=C1C2=C(NC3(C=N2)SCCS3)c2ccccc21

1: > 260 °C; 2: 161 °C; 3: 147 °C; 4: 183 to 185 °C; 5: 284 to 290 °C

Would you mind giving melting point for every compound in the list below?
1. CC(C)Oc1ncnc2c(O)ccc(Cl)c12
2. CC1(CN2CCC(OCc3ccc(Cl)cc3)CC2)Cn2cc([N+](=O)[O-])nc2O1 (stereo unspecified)
3. CCOc1nc2cccc(C(Br)Br)c2c(=O)o1

126 °C
129 to 130 °C
98 to 99 °C

// each compound listed below needs its melting point
1. COc1ccc(-c2cc(N(C)c3c(C)cc(C)cc3C)nc(C)n2)cc1OC
2. CS(=O)(=O)Nc1cccc(Nc2nc(N3CCCC3)c3nc[nH]c3n2)c1

1. 124 to 125 °C
2. 164 to 168 °C

Please state melting point for every compound in the list that follows.
1. CS(=O)(=O)c1cnc(Cl)c(CCC(=O)c2ccc(Cl)c(Cl)c2)c1
2. CCc1ncnc2ccc(C#Cc3cc(OC)ccc3OC)cc12
3. O=C(c1ccccc1Nc1ccncc1)N1CCCCC1
4. COC(=O)Cn1c(=O)[nH]c2ccc(C(=O)c3c(C)c(OC)c4ccccn34)cc2c1=O
5. COc1cc2c(cc1OC)C1(CNC(=O)C1)CC2=O (stereo unspecified)
6. CC(=O)NC[C@H]1CN(c2cc(F)c(N3CCC4(CC3)CO4)c(F)c2)C(=O)O1
7. CS(=O)(=O)c1ccc(-c2c(-c3ccccc3)sc3ccccc23)cc1
8. COCCC1(c2ccc(O)cc2)N=CC=N1

1: 128 to 130 °C; 2: 103 to 105 °C; 3: 153 to 156 °C; 4: 253 °C; 5: 193 to 195 °C; 6: 160 to 162 °C; 7: 173 to 174 °C; 8: 173 to 176 °C

Requested field: melting point. Item: CC(C)c1nc(-c2ccccc2Cc2ccccc2)cc(-c2ccc(F)cc2)c1CO 122 to 124 °C

====

Please provide measured melting point for the entries that follow.

A selection of reference data follows.
COC(=O)C[C@H](Cc1ccc(-c2ccccc2)cc1)NCP(=O)(OC)OC ... 67 °C
COc1ccc(Sc2nc(C)c(CC(=O)O)s2)nn1 ... 143 to 144 °C
CCOC(=O)COc1coc(CCl)cc1=O ... 98 to 100 °C
COc1ccc(S(=O)(=O)Nc2nc(-c3cccc4ccccc34)cs2)cc1 ... 98 to 100 °C
COc1cc2ncnc(N3CCN(C(=S)NCc4ccc([N+](=O)[O-])cc4)CC3)c2cc1OC ... 214 to 216 °C

Can you give me melting point for all of these, one by one?
1. N#Cc1ccc(N2CCN(Cc3cnc4c(c3)NC(=O)[C@@H]3CCCN43)CC2)cc1F
2. O=C1c2ccc(C#Cc3cccc4ccccc34)cc2C(=O)N1c1ccccc1
3. Fc1ccc2c(CCCN3CCN(c4n[nH]c5ccccc45)CC3)noc2c1
4. Cc1ccccc1-c1c(N)c(=O)oc2cc3c(cc12)CCC3
5. CCn1c2ccccc2c2cc(Nc3nccc(-c4ccc(N5CCNCC5)nc4)n3)ccc21

1: 251 to 255 °C; 2: 176 to 178 °C; 3: 139 to 141 °C; 4: 275 to 276 °C; 5: 131 to 137 °C
